- target.system: PI3Kδ (Homo sapiens (Human))
- protocol.details: TR-FRET enzymatic activity assay against PI3K isoforms
- run.conditions: 2×Km ATP, 30 minutes at 25° C.
value.kind: IC50 (nM)

Field: example entries. Status: answers known.
compound: C[C@H](Nc1nc(N)nc(N)c1C#N)c1nc2cccc(Cl)c2c(=O)n1CC1CCCNC1 (stereo in doubt) [Compound 123]
IC50, nM: 3

compound: Nc1nc(N)c(Cl)c(N[C@H](c2nc3c(Cl)ccc(Cl)c3c(=O)n2[C@H]2C[C@@H](O)C2)C2CC2)n1 [Compound 95]
IC50, nM: 16

compound: C[C@H](Nc1nc(N)nc(N)c1C#N)c1nc2cccc(Cl)c2c(=O)n1N(C)CCN [Compound 15]
IC50, nM: 3

compound: C[C@H](Nc1ncnn2ccnc12)c1nc2cccc(Cl)c2c(=O)n1N(C)CCN [Compound 11]
IC50, nM: 37

compound: COCCCn1c([C@H](C)Nc2ncnc(N)c2C#N)nc2c(Cl)ccc(Cl)c2c1=O [Compound 106]
IC50, nM: 8

compound: N#Cc1c(N)nc(N)nc1N[C@H](c1nc2cccc(Cl)c2c(=O)n1CCCCC(N)=O)C1CC1 [Compound 64]
IC50, nM: 1

compound: C[C@H](Nc1ncnc(N)c1C#N)c1nc2cccc(Cl)c2c(=O)n1C[C@@H](O)CO [Compound 142]
IC50, nM: 87

P = C[C@H](Nc1nc(N)nc(N)c1C#N)c1nc2cccc(Cl)c2c(=O)n1N(CCN)Cc1ccccc1 [Compound 9]
Q = C[C@H](Nc1ncnc(N)c1C#N)c1nc2cccc(Cl)c2c(=O)n1CCN1CCCC1 [Compound 136]
Query: // compare measured IC50, left P , right Q , return larger The response must carry the label of the picked entry.
Reply: P
(P: 77 nM, Q: 25 nM)

* * *

- target.system: PI3Kδ (Homo sapiens (Human), UniProt O00329)
- Sequence (O00329 whole entry, canonical isoform): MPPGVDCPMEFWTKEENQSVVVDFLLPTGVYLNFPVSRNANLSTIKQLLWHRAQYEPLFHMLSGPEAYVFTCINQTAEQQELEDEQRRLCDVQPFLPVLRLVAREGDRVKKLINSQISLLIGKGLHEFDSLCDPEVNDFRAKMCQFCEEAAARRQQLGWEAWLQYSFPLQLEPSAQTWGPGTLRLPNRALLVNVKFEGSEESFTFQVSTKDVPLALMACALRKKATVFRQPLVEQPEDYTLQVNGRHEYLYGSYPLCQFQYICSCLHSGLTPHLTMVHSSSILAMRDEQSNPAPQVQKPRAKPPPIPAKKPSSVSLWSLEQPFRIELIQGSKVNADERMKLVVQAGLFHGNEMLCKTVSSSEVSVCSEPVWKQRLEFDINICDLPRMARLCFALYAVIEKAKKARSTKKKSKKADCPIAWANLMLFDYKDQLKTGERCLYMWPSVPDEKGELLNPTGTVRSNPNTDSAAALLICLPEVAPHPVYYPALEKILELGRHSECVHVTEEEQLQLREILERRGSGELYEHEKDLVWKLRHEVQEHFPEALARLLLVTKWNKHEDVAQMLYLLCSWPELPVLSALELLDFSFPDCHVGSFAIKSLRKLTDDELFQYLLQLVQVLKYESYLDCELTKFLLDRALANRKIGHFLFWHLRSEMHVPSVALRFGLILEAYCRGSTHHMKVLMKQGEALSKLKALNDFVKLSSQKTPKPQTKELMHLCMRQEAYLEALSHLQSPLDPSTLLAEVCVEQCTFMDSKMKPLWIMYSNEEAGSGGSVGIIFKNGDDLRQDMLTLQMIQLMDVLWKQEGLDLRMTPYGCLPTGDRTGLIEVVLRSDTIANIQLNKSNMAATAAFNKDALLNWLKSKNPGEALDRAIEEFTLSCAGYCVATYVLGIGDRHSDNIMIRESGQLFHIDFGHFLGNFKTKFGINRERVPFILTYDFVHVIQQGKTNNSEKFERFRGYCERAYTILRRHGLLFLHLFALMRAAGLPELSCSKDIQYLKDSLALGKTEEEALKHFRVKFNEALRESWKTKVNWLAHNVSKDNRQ
- Sequence (P27986 whole entry partner, canonical isoform): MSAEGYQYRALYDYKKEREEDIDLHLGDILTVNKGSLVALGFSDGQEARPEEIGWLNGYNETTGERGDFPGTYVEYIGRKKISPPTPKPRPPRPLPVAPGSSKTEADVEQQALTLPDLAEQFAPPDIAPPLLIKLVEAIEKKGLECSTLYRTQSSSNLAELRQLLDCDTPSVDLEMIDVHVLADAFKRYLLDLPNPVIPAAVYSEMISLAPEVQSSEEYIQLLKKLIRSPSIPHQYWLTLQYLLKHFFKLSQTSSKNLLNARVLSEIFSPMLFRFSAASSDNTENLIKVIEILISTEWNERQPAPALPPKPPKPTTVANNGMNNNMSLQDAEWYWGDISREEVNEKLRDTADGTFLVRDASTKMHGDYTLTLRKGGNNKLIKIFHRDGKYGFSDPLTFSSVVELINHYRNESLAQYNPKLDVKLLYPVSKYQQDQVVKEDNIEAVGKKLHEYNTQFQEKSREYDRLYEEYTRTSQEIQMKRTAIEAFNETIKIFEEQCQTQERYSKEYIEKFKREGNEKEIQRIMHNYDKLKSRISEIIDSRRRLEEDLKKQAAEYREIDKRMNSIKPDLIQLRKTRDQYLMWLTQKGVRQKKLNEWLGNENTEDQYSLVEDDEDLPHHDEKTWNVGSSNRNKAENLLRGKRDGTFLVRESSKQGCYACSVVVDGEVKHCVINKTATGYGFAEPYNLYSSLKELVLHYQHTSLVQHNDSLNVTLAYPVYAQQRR
- protocol.details: TR-FRET enzymatic activity assay against PI3K isoforms
- run.conditions: 2×Km ATP, 30 minutes at 25° C.
value.kind: IC50 (nM)

Field: example entries. Status: answers known.
compound: CC[C@H](Nc1nc(N)nc(N)c1C#N)c1nc2cccc(Cl)c2c(=O)n1CCCS(C)(=O)=O
IC50 [nM]: 21
--
compound: C[C@H](Nc1ncnn2ccnc12)c1nc2cccc(Cl)c2c(=O)n1Cc1cc[nH]n1
IC50 [nM]: 49
--
compound: Cc1nc(N)nc(N[C@@H](C)c2nc3cccc(Cl)c3c(=O)n2CCCN(C)Cc2ccccc2)c1C#N
IC50 [nM]: 7
--
compound: Cc1nc(N)nc(N[C@H](c2nc3cccc(Cl)c3c(=O)n2CCCN)C2CC2)c1C#N
IC50 [nM]: 1
--
compound: CC[C@H](Nc1nc(N)nc(N)c1C#N)c1nc2cccc(Cl)c2c(=O)n1CCCC#N
IC50 [nM]: 9

1 = CC(CN)Cn1c([C@H](C)Nc2ncnc(N)c2C#N)nc2cccc(Cl)c2c1=O (stereo partly drawn)
2 = C[C@H](Nc1ncnc(N)c1C#N)c1nc2cccc(Cl)c2c(=O)n1[C@H]1CC[C@H](O)CC1
Query: Of 1 and 2 , which carries the smaller reported IC50 figure? The response must carry the label of the picked entry.
Reply: 2
(2: 3 nM, 1: 7 nM)

* * *

- target.system: PI3Kδ (Homo sapiens (Human))
- protocol.details: TR-FRET enzymatic activity assay against PI3K isoforms
- run.conditions: 2×Km ATP, 30 minutes at 25° C.
pIC50: −log10 of the molar value.
value.kind: pIC50

Field: example entries. Status: answers known.
molecule: CC(=O)NCCCn1c([C@@H](Nc2nc(N)nc(N)c2C#N)C2CC2)nc2cccc(Cl)c2c1=O
target.system: PI3Kδ (Homo sapiens (Human))
pIC50: 8.70
--
molecule: C[C@H](Nc1ncnn2ccnc12)c1nc2cccc(Cl)c2c(=O)n1CCCN
target.system: PI3Kδ (Homo sapiens (Human))
pIC50: 7.47

I = CS(=O)(=O)CCCCn1c([C@@H](Nc2nc(N)nc(N)c2C#N)C2CC2)nc2cccc(Cl)c2c1=O
II = CNCCCn1c([C@@H](Nc2nc(N)nc(N)c2C#N)C2CC2)nc2cccc(Cl)c2c1=O
Query: Of I and II , which carries the smaller reported pIC50 figure? The response must carry the label of the picked entry.
Reply: II
